# Tested on: WM1552C (Melanoma)
# method summary: combination Emax (second highest fraction inhibited in the dose matrix, 72 h); higher = more inhibition; extreme values may be limits of the assay
A collection of compounds and their measured combination Emax
Reply briefly: the number, and no unit.

compound="NC1(C(=O)N[C@@H](CCO)c2ccc(Cl)cc2)CCN(c2ncnc3[nH]ccc23)CC1 [Capivasertib] + CCN(CCO)CCCOc1ccc2c(Nc3cc(CC(=O)Nc4cccc(F)c4)[nH]n3)ncnc2c1 [AZD2811] (first compound max 10 µM, 7x7, partner max 1 µM)" system_name="WM1552C (Melanoma)" measurement_type="combination Emax" numeric_value=0.447
compound="COc1nnc2ccc(N3CCC(c4ccc(OCCN5CCN(C)C(=O)[C@H]5C)cc4)CC3)nn12 [AZD5153] + CCN(CCO)CCCOc1ccc2c(Nc3cc(CC(=O)Nc4cccc(F)c4)[nH]n3)ncnc2c1 [AZD2811] (first compound max 1 µM, 7x7, partner max 1 µM)" system_name="WM1552C (Melanoma)" measurement_type="combination Emax" numeric_value=0.444
compound="Cc1c2c(nn1C)CSCc1cc(n(C)n1)CSc1cc(c3ccccc3c1)OCCCc1c(C(=O)O)n(C)c3c-2c(Cl)ccc13 [AZD5991] + CCN(CCO)CCCOc1ccc2c(Nc3cc(CC(=O)Nc4cccc(F)c4)[nH]n3)ncnc2c1 [AZD2811] (first compound max 1 µM, 7x7, partner max 1 µM)" system_name="WM1552C (Melanoma)" measurement_type="combination Emax" numeric_value=0.824
compound="COc1cccc(OCCCN)c1-c1cc(Nc2cnc(C#N)cn2)n[nH]1 [Prexasertib] + CCc1c2c(nc3ccc(O)cc13)-c1cc3c(c(=O)n1C2)COC(=O)[C@]3(O)CC [SN-38] (first compound max 1 µM, 7x7, partner max 0.3 µM)" system_name="WM1552C (Melanoma)" measurement_type="combination Emax" numeric_value=0.833
compound="CC1(C)CCC(CN2CCN(c3ccc(C(=O)NS(=O)(=O)c4ccc(NCC5CCOCC5)c([N+](=O)[O-])c4)c(Oc4cnc5[nH]ccc5c4)c3)CC2)=C(c2ccc(Cl)cc2)C1 [Venetoclax] + CS(=O)(=O)CCNCc1ccc(-c2ccc3ncnc(Nc4ccc(OCc5cccc(F)c5)c(Cl)c4)c3c2)o1 [Lapatinib] (first compound max 1 µM, 7x7, partner max 10 µM)" system_name="WM1552C (Melanoma)" measurement_type="combination Emax" numeric_value=0.187

Req: Form field: combination Emax recorded for C[C@@H](Oc1cc(-c2cnn(C3CCNCC3)c2)cnc1N)c1c(Cl)ccc(F)c1Cl [Crizotinib] + CC1=C(C(=CC=C1)Cl)NC(=O)C2=CN=C(S2)NC3=CC(=NC(=N3)C)N4CCN(CC4)CCO [Dasatinib] (first compound max 10 µM, 7x7, partner max 2 µM) with WM1552C (Melanoma) (enter value)
Resp: 0.959

Req: Form field: combination Emax recorded for CN(C)CCCOc1ccc(-c2ccc3ncc4c(c3c2)n(C2CCOCC2)c(=O)n4C)cn1 [AZD0156] + C[C@@H]1COCCN1C2=NC(=NC(=C2)C3(CC3)[S@](=N)(=O)C)C4=C5C=CNC5=NC=C4 [AZD6738] (first compound max 1 µM, 7x7, partner max 10 µM) with WM1552C (Melanoma) (enter value)
Resp: 0.783

---

# Test system: MKN1 (Gastric Carcinoma)
# method summary: combination Emax (second highest fraction inhibited in the dose matrix, 72 h); higher = more inhibition; extreme values may be limits of the assay
Note to self: values exactly at 0.5 are YES. So combination Emax at or above 0.5 is YES, below is NO.

molecule="Cn1cnc2c(F)c(Nc3ccc(Br)cc3Cl)c(C(=O)NOCCO)cc21 [Selumetinib] + CCN(CCO)CCCOc1ccc2c(Nc3cc(CC(=O)Nc4cccc(F)c4)[nH]n3)ncnc2c1 [AZD2811] (first compound max 10 µM, 7x7, partner max 1 µM)" label_value=YES
molecule="CC(=O)c1c(C)c2cnc(Nc3ccc(N4CCNCC4)cn3)nc2n(C2CCCC2)c1=O [Palbociclib] + CC1(C)CCC(CN2CCN(c3ccc(C(=O)NS(=O)(=O)c4ccc(NCC5CCOCC5)c([N+](=O)[O-])c4)c(Oc4cnc5[nH]ccc5c4)c3)CC2)=C(c2ccc(Cl)cc2)C1 [Venetoclax] (first compound max 10 µM, 7x7, partner max 1 µM)" label_value=NO
molecule="C=CCn1c(=O)c2cnc(Nc3ccc(N4CCN(C)CC4)cc3)nc2n1-c1cccc(C(C)(C)O)n1 [AZD1775] + Nc1ccn([C@@H]2O[C@H](CO)[C@@H](O)C2(F)F)c(=O)n1 [Gemcitabine] (first compound max 1 µM, partner max 0.3 µM)" label_value=YES
molecule="Cn1cnc2c(F)c(Nc3ccc(Br)cc3Cl)c(C(=O)NOCCO)cc21 [Selumetinib] + CC(C)n1c(=O)n(C)c2cnc3cc(F)c(-c4ccc(OCCCN5CCCCC5)nc4)cc3c21 [AZD1390] (first compound max 10 µM, 7x7, partner max 0.3 µM)" label_value=NO
molecule="C[C@@H](c1ccc2nccn2c1)n1nnc2ncc(-c3cnn(C)c3)nc21 [Savolitinib] + CC1(C)CCC(CN2CCN(c3ccc(C(=O)NS(=O)(=O)c4ccc(NCC5CCOCC5)c([N+](=O)[O-])c4)c(Oc4cnc5[nH]ccc5c4)c3)CC2)=C(c2ccc(Cl)cc2)C1 [Venetoclax] (first compound max 1 µM, 7x7, partner max 1 µM)" label_value=NO
molecule="C[C@@H](Oc1cc(-c2cnn(C3CCNCC3)c2)cnc1N)c1c(Cl)ccc(F)c1Cl [Crizotinib] + CC1=C(C(=CC=C1)Cl)NC(=O)C2=CN=C(S2)NC3=CC(=NC(=N3)C)N4CCN(CC4)CCO [Dasatinib] (first compound max 10 µM, 7x7, partner max 2 µM)" label_value=YES

Req: Check this molecule for combination Emax at or above 0.5: C[C@@H]1COCCN1c1cc(C2([S@](C)(=N)=O)CC2)nc(-c2ccnc3[nH]ccc23)n1 [AZD6738] + Nc1ccn([C@@H]2O[C@H](CO)[C@@H](O)C2(F)F)c(=O)n1 [Gemcitabine] (first compound max 10 µM, 7x7, partner max 0.3 µM)
Resp: YES

Req: Check this molecule for combination Emax at or above 0.5: O=C(c1cc(Cc2n[nH]c(=O)c3ccccc23)ccc1F)N1CCN(C(=O)C2CC2)CC1 [Olaparib] + CC1(C)CCC(CN2CCN(c3ccc(C(=O)NS(=O)(=O)c4ccc(NCC5CCOCC5)c([N+](=O)[O-])c4)c(Oc4cnc5[nH]ccc5c4)c3)CC2)=C(c2ccc(Cl)cc2)C1 [Venetoclax] (first compound max 10 µM, 7x7, partner max 1 µM)
Resp: NO

Req: Check this molecule for combination Emax at or above 0.5: N#Cc1cnc(Nc2cc(NC[C@H]3CNCCO3)c(C(F)(F)F)cn2)cn1 [SRA737] + O=c1[nH]cc(F)c(=O)[nH]1 [5-Fluorouracil] (first compound max 10 µM, 7x7, partner max 20 µM)
Resp: YES
